experiment: qHTS assay to identify small molecule agonists of the AP-1 signaling pathway - cell viability counter screen (AID 1159525); conditions: ME-180 (cervical carcinoma) AP-1-bla cells viability, ATP luminescence, 5 h; series mostly up to 76.8 µM; note: nearly all actives have a fitted effect of over 55% in size
Inconclusive results are not listed. Activity calls are given as the source filed them. Calls come from the whole dose curve.
Your answer must be one of the following: active, inactive

Request: What outcome does the record of this test show for CCN(CCC#N)c1ccc(N=Nc2c(Cl)cc([N+](=O)[O-])cc2Cl)cc1 ?
Response: inactive

====

target: Cytochrome P450 1A2 (Homo sapiens) (UniProt P05177); assay: Cytochrome P450 Family 1 Subfamily A Member 2 (CYP1A2) small molecule antagonists: luciferase reporter qHTS assay (AID 1671199); conditions: P450-Glo CYP1A2 enzyme, luciferin luminescence, 1 h; series mostly up to 53 µM; note: nearly all actives have a fitted effect of over 50% in size
Sequence (P05177 whole entry, looked up): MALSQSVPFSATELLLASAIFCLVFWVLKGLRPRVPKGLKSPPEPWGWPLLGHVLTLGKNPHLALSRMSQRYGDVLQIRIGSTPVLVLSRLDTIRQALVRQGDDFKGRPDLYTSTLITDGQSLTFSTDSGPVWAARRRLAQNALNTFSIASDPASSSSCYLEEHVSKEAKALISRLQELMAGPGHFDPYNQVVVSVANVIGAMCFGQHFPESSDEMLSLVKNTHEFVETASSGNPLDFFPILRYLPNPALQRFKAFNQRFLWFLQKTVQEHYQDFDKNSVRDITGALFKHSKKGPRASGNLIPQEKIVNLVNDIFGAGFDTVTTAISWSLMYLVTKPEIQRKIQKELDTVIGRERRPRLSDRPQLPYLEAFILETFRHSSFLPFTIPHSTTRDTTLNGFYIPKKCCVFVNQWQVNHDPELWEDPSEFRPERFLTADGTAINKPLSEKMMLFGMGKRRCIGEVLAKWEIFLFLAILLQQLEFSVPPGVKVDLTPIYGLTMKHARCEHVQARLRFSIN
Inconclusive results are not listed. Activity calls are given as the source filed them. The call rests on the fitted dose curve; in most records, active means well fitted inhibition curve with a large enough effect in the repeat runs; inconclusive means weak or mixed curves; inactive means no such curve, though single readings can be large or run the other way.
Select the matching outcome among y = active, n = inactive

// below: answered molecules
Cc1[nH]nc2c1N=C(c1ccccc1Cl)c1cc([N+](=O)[O-])ccc1N2: y
O=C1c2c(O)ccc(Nc3ccc(CCO)cc3)c2C(=O)c2c([N+](=O)[O-])ccc(O)c21: y
CC(C)(C)c1ccc(C(=O)O)cc1: n
CC/C(=C(\c1ccc(O)cc1)c1ccc(OCCN(C)C)cc1)c1ccccc1: n
O=c1cccccc1O: n
CCOc1nc2cccc(C(=O)OC(C)OC(=O)OC3CCCCC3)c2n1Cc1ccc(-c2ccccc2-c2nn[nH]n2)cc1 (configuration not stated): n

Request: // param item: CCCCc1oc2ccc(NS(C)(=O)=O)cc2c1C(=O)c1ccc(OCCCN(CCCC)CCCC)cc1 ; yields the recorded call
Response: n

Request: Query: recorded result category for NC(=O)NS(=O)(=O)c1ccc(N)cc1 in this test
Response: n

Request: Assay result, entry CCCCCCCCCCCC(=O)NCCCN(C)C — outcome?
Response: y

Request: What classification did CC[C@H](c1ccc(O)cc1)[C@@H](CC)c1ccc(O)cc1 end up with in this test?
Response: n

Request: Check the results log: what was the call for O=C(Nc1cccc(Cl)c1)OCC#CCCl ?
Response: y

Request: Identify the outcome logged in this assay for the molecule shown: CCCCCCCCS(=O)C(C)Cc1ccc2c(c1)OCO2 (configuration not stated)
Response: y
